target: GST-Ist1-CTR (residues 296-335) (human); assay: SPR
Listed binders paired with reported pKd
Field pKd (float): negative decimal logarithm of the concentration in molar.

Fill in the blank: the reported pKd of spastin MIT domain, purified (domain or fragment) HKQAFEYISIALRIDEDEKAGQKEQAVEWYKKGIEELEKGIAVIVTGQGEQCERARRLQAKMMTNLVMAKDRLQLL is ____.
5.34

Fill in the blank: the reported pKd of spastin F124D MIT domain, purified (domain or fragment) HKQADEYISIALRIDEDEKAGQKEQAVEWYKKGIEELEKGIAVIVTGQGEQCERARRLQAKMMTNLVMAKDRLQLL is ____.
3.33

Fill in the blank: the reported pKd of spartin MIT domain (residues 1-107), purified (domain or fragment) MEQEPQNGEPAEIKIIREAYKKAFLFVNKGLNTDELGQKEEAKNYYKQGIGHLLRGISISSKESEHTGPGWESARQMQQKMKETLQNVRTRLEILEKGLATSLQNDL is ____.
4.98
